Biological target: Neu5Ac(a2-3)Gal(b1-4)[Fuc(a1-3)]GlcNAc(b1-6)[Neu5Ac(a2-3)Gal(b1-3)]GalNAc
Test: glycan array binding signal (z-score within array); higher = stronger binding
Conditions: glycan notation: IUPAC condensed, linker removed
This is one part of a sample in which the strongest signals are shown more often than they occur.

- binder: "Apa (Mycobacterium tuberculosis), Rv1860 (protein) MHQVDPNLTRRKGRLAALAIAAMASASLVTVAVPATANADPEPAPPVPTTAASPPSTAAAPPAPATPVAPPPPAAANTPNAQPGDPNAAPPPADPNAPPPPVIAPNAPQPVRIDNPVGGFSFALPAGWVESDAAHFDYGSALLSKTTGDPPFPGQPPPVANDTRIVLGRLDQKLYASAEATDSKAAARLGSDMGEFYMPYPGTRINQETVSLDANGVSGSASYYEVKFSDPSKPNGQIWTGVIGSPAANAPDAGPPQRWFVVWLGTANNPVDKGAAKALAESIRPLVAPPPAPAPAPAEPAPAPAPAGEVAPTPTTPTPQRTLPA"
  glycan array binding signal (z-score): 0.026
- binder: "CBP21 (Serratia marcescens), O83009 (protein) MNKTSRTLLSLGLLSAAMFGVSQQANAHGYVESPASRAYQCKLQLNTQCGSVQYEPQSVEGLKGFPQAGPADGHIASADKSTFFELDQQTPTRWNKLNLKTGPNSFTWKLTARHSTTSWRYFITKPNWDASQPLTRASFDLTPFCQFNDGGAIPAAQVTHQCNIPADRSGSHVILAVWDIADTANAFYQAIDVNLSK"
  glycan array binding signal (z-score): -0.314
- binder: "PEB1 (Campylobacter jejuni), Q0P9X8 (protein) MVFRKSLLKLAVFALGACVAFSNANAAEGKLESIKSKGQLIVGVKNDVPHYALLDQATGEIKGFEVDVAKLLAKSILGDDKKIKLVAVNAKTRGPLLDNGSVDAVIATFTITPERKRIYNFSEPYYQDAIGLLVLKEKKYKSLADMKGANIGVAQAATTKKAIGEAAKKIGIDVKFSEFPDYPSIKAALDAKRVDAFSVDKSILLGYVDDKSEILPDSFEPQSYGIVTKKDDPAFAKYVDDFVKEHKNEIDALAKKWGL"
  glycan array binding signal (z-score): 3.1
- binder: "F17-L (Escherichia coli) (protein) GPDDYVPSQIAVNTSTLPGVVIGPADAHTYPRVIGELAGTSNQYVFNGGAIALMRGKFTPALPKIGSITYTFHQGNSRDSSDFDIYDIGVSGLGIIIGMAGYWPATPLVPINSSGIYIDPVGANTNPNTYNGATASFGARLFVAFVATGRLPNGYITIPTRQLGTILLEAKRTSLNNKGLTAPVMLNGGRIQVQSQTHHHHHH"
  glycan array binding signal (z-score): -0.152
- binder: "SAG3 (Toxoplasma gondii), Q9BJ39 (protein) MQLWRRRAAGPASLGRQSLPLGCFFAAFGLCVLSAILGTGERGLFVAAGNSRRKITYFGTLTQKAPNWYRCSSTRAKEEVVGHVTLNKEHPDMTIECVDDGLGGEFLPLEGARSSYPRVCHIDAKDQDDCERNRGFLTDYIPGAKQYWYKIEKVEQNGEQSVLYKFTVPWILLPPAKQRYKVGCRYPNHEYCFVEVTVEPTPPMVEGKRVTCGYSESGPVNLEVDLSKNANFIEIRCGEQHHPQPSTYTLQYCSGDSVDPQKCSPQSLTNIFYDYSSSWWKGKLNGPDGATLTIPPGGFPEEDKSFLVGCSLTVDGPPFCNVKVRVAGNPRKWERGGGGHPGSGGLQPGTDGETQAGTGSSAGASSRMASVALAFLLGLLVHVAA"
  glycan array binding signal (z-score): 2.02
